These data points were gathered from ChEMBL document CHEMBL1157919.

- assay-procedure: Half life in human microsomes
- Assay type: ADME, Microsome

{"structure": "COc1cc(Nc2c(C#N)cnc3cc(/C=C/CCN4CCN(C)CC4)c(OC)cc23)c(Cl)cc1Cl", "half-life (min)": 11}

---

- measured-target: Serine/threonine-protein kinase mTOR (Homo sapiens, UniProt P42345)
pIC50: −log10 of the molar value.

{"structure": "COc1cc(Nc2c(C#N)cnc3cc(/C=C/CCN4CCN(C)CC4)c(OC)cc23)c(Cl)cc1Cl", "measured-target": "Serine/threonine-protein kinase mTOR (Homo sapiens, UniProt P42345)", "pIC50": "< 5.00"}

---

Item-by-item account of half-life
- assay-procedure: Half life in rat liver microsomes
- Type: ADME, Microsome

{"structure": "COc1cc(Nc2c(C#N)cnc3cc(/C=C/CCN(C)C)c(OC)cc23)c(Cl)cc1Cl", "half-life": "> 30 min"}
{"structure": "CCN1CCN(CC/C=C/c2cc3ncc(C#N)c(Nc4cc(OC)c(Cl)cc4Cl)c3cc2OC)CC1", "half-life": "> 30 min"}
{"structure": "COc1cc(Nc2c(C#N)cnc3cc(/C=C/CCN4CCN(C)CC4)c(OC)cc23)c(Cl)cc1Cl", "half-life": "10 min"}
{"structure": "COc1cc(Nc2c(C#N)cnc3cc(/C=C/CCN4CCCCC4)c(OC)cc23)c(Cl)cc1Cl", "half-life": "> 30 min"}
